# Test system: Danio rerio larvae (5 dpf)
# method-summary: difference in excitability vs DMSO (percentage points); higher = more excitable than DMSO
# conditions-used: 10 µM; exposure time 6 h
Counter-ions that a name gives are not always drawn.
Attribute: difference in excitability
quantity-kind: difference in excitability

1) CCCN(CCc1cccs1)[C@H]1CCc2c(O)cccc2C1 [Rotigotine]: 20.1
2) Cc1ccc(C(=O)c2ccc(CC(=O)O)n2C)cc1 [Tolmetin (sodium salt hydrate)]: -2.25
3) CCCc1nc(C)c2c(=O)nc(-c3cc(S(=O)(=O)N4CCN(CC)CC4)ccc3OCC)[nH]n12 [Vardenafil (hydrochloride hydrate)]: 4.29
4) N#C[C@@H]1C[C@@H]2C[C@@H]2N1C(=O)[C@@H](N)C12CC3CC(CC(O)(C3)C1)C2 [Saxagliptin (hydrochloride)]: 4.61
5) C[C@@H](O[C@H]1OCCN(Cc2n[nH]c(=O)[nH]2)[C@H]1c1ccc(F)cc1)c1cc(C(F)(F)F)cc(C(F)(F)F)c1 [Aprepitant]: 9.22
6) CN[C@H](CC(C)C)C(=O)N[C@H]1C(=O)N[C@@H](CC(N)=O)C(=O)N[C@H]2C(=O)N[C@H]3C(=O)N[C@H](C(=O)N[C@H](C(=O)O)c4cc(O)cc(O)c4-c4cc3ccc4O)[C@H](O)c3ccc(c(Cl)c3)Oc3cc2cc(c3O[C@@H]2O[C@H](CO)[C@@H](O)[C@H](O)[C@H]2O[C@H]2C[C@](C)(N)[C@H](O)[C@H](C)O2)Oc2ccc(cc2Cl)[C@H]1O [Vancomycin (hydrochloride)]: -0.532

* * *

# System: Danio rerio larvae (5 dpf)
# method-summary: difference in combined optomotor response to red, green and blue moving lines vs DMSO (percentage points); higher = stronger optomotor response than DMSO
# conditions-used: 10 µM; exposure time 6 h
Where a name gives a salt, the structure may show the parent alone.
# label = True if difference >= 2 else False

1) Clc1ccc(C(c2ccccc2Cl)C(Cl)Cl)cc1 (stereo unspecified) [Mitotane]: False
2) NCc1ccc(S(N)(=O)=O)cc1 [Mafenide]: False
3) CCC(=O)NC[C@@H]1C[C@H]1c1cccc2c1CCO2 [Tasimelteon]: True
4) C[n+]1ccccc1/C=N/O [Pralidoxime (chloride)]: False
5) CN(Cc1cnc2nc(N)nc(N)c2n1)c1ccc(C(=O)N[C@@H](CCC(=O)O)C(=O)O)cc1 [Methotrexate (hydrate)]: True
6) CC(O)(P(=O)(O)O)P(=O)(O)O [Etidronate (sodium salt)]: True

* * *

# Tested on: Danio rerio larvae (5 dpf)
# method-summary: difference in habituation to acoustic stimuli vs DMSO (percentage points); higher = more habituation than DMSO
# conditions-used: 10 µM; exposure time 6 h
Structures can show the parent of a compound that is named as a salt.
Grouping key: difference in habituation to acoustic stimuli. Bins: Low: < -2; Mid: ≥ -2 and < 3; High: ≥ 3

1. CC(C)CN(C[C@@H](OP(=O)(O)O)[C@H](Cc1ccccc1)NC(=O)O[C@H]1CCOC1)S(=O)(=O)c1ccc(N)cc1 [Fosamprenavir (calcium salt)]: Low
2. CO[C@H]1C(=O)[C@]2(C)[C@@H](OC)C[C@H]3OC[C@@]3(OC(C)=O)[C@H]2[C@H](OC(=O)c2ccccc2)[C@]2(O)C[C@H](OC(=O)[C@H](O)[C@@H](NC(=O)OC(C)(C)C)c3ccccc3)C(C)=C1C2(C)C: High
3. Cc1cc(C2CCCCC2)n(O)c(=O)c1: High
4. Nc1nc(=O)n([C@@H]2CS[C@H](CO)O2)cc1F: High
5. NC(=O)Cc1cccc(C(=O)c2ccccc2)c1N: High
6. CCCCCOc1ccc(-c2ccc(-c3ccc(C(=O)N[C@H]4C[C@@H](O)[C@@H](O)NC(=O)[C@@H]5[C@@H](O)[C@@H](C)CN5C(=O)[C@H]([C@@H](C)O)NC(=O)[C@H]([C@H](O)[C@@H](O)c5ccc(O)cc5)NC(=O)[C@@H]5C[C@@H](O)CN5C(=O)[C@H]([C@@H](C)O)NC4=O)cc3)cc2)cc1: Low
7. CC1(C)O[C@@H]2C[C@H]3[C@@H]4CCC5=CC(=O)C=C[C@]5(C)[C@@]4(F)[C@@H](O)C[C@]3(C)[C@]2(C(=O)CO)O1 [Triamcinolone acetonide]: High
8. CCN1CC(CCN2CCOCC2)C(c2ccccc2)(c2ccccc2)C1=O (centres undefined) [Doxapram (hydrochloride hydrate)]: Low
9. CCC(C)n1ncn(-c2ccc(N3CCN(c4ccc(OCC5COC(Cn6cncn6)(c6ccc(Cl)cc6Cl)O5)cc4)CC3)cc2)c1=O (centres undefined): Low
10. O=C(O)P(=O)(O)O [Foscarnet (sodium salt)]: Mid
11. CNS(=O)(=O)CCc1ccc2[nH]cc(C3CCN(C)CC3)c2c1 [Naratriptan (hydrochloride)]: High
12. Clc1ccc(COC(Cn2ccnc2)c2ccc(Cl)cc2Cl)cc1 (centres undefined) [Econazole (nitrate)]: Low
13. CCCN1CCCC[C@H]1C(=O)Nc1c(C)cccc1C [(-)-Ropivacaine (hydrochloride hydrate)]: Mid
14. CCCCC[C@](C)(O)/C=C/[C@@H]1[C@@H](C/C=C\CCCC(=O)O)[C@@H](O)C[C@H]1O [15(S)-15-methyl Prostaglandin F2α]: Mid
